# normalised response annotations
- Tested on: MDA-MB-231
- procedure text: normalised response (% of control), CellTiter-Glo; higher = more viable cells (100 = DMSO, 0 = benzethonium chloride kill control)
- protocol conditions: incubation time: 72 h

COc1cc([C@@H]2c3cc4c(cc3[C@@H](O[C@@H]3O[C@@H]5CO[C@@H](c6cccs6)O[C@H]5[C@H](O)[C@H]3O)[C@H]3COC(=O)[C@H]23)OCO4)cc(OC)c1O [Teniposide] (100 nM) ... 94.3%
O=C(/C=C/c1cccnc1)NCCCCC1CCN(C(=O)c2ccccc2)CC1 [Daporinad] (10 nM) ... 91.5%

Let's switch to this compound now.
Query: Would you kindly share the measured normalised response for O=C(Cc1ccc(-c2ccc(OCCN3CCOCC3)cc2)cn1)NCc1ccccc1 [KX2-391] (100 nM) ?
Response: 64.4%

###

Catalogue of molecules with associated normalised viability
- System: CAL-148
- procedure text: normalised viability (% of control), CellTiter-Blue; higher = more viable cells (about 100 = DMSO control)
- protocol conditions: 100 nM; incubation time: 72 h
Answer with a number only, understood to be in %.

Record excerpt, results attached:
CCN(CC)CCCC(C)Nc1c2ccc(Cl)cc2nc2ccc(OC)cc12 (stereo not given) ... 102
C=CC(=O)Nc1cc2c(Nc3ccc(F)c(Cl)c3)ncnc2cc1OCCCN1CCOCC1 ... 75.6
CC[C@H](Nc1ncnc2[nH]cnc12)c1nc2cccc(F)c2c(=O)n1-c1ccccc1 ... 88.5
O=C(O)C(=O)O.[NH-][C@@H]1CCCC[C@H]1[NH-].[Pt+2] ... 120

In the following, a different molecule is considered.
Query: Would you kindly share the measured normalised viability for Nc1ccccc1NC(=O)c1ccc(CNC(=O)OCc2cccnc2)cc1 ?
Response: 86.7

###

- Tested on: Hs578T
- procedure text: normalised response (% of control), CellTiter-Glo; higher = more viable cells (100 = DMSO, 0 = benzethonium chloride kill control)
- protocol conditions: incubation time: 72 h
value kind: normalised response (%)
Dear colleague, please return just the value in %, with no unit written.

Please review the entries below; each comes with its answer.
CC(=O)Nc1cccc(-n2c(=O)n(C3CC3)c(=O)c3c(Nc4ccc(I)cc4F)n(C)c(=O)c(C)c32)c1 [Trametinib] (2.5 nM) ... 90.8
O=C(O)C(=O)O.[NH-][C@@H]1CCCC[C@H]1[NH-].[Pt+2] [Oxaliplatin] (100 nM) ... 97.9
C=CCc1cccc(/C=N/NC(=O)CN2CCN(Cc3ccccc3)CC2)c1O [PAC-1] (100 nM) ... 104
CCN(CC)CCCC(C)Nc1c2ccc(Cl)cc2nc2ccc(OC)cc12 (stereo unspecified) [Mepacrine] (500 nM) ... 98.7
CCCS(=O)(=O)Nc1ccc(F)c(C(=O)c2c[nH]c3ncc(-c4ccc(Cl)cc4)cc23)c1F [Vemurafenib] (100 nM) ... 95.9

Query: Any idea what its normalised response is? The molecule is COc1cc2nccc(Oc3ccc(NC(=O)Nc4cc(C)on4)c(Cl)c3)c2cc1OC [Tivozanib] (100 nM)
Response: 93.7

###

- Test system: MDA-MB-453
- procedure text: normalised viability (% of control), CellTiter-Blue; higher = more viable cells (100 = DMSO, 0 = benzethonium chloride kill control)
- protocol conditions: 1 nM; incubation time: 72 h
Listing of recorded normalised viability by entry.
Respond numerically; units are % and should not be typed.

COc1cc([C@@H]2c3cc4c(cc3[C@@H](O[C@@H]3O[C@@H]5CO[C@@H](c6cccs6)O[C@H]5[C@H](O)[C@H]3O)[C@H]3COC(=O)[C@H]23)OCO4)cc(OC)c1O [Teniposide] ... 113
N#Cc1ccc(C(c2ccc(C#N)cc2)n2cncn2)cc1 ... 96.4
CCc1cncnc1N1CCN(Cc2nc3ccc(C(F)(F)F)cc3[nH]2)CC1 ... 101
Oc1ncc(N(CCCl)CCCl)c(O)n1 ... 99.1

Query: Reported normalised viability, molecule CCCCC(=O)OCC(=O)[C@]1(O)Cc2c(O)c3c(c(O)c2[C@@H](O[C@H]2C[C@H](NC(=O)C(F)(F)F)[C@H](O)[C@H](C)O2)C1)C(=O)c1c(OC)cccc1C3=O : ____
Response: 97.6

###

Entries annotated with measured normalised response
- System: CAL-51
- procedure text: normalised response (% of control), CellTiter-Glo; higher = more viable cells (100 = DMSO, 0 = benzethonium chloride kill control)
- protocol conditions: incubation time: 72 h
Return type: number; implicit unit %.

CC(=O)Nc1cccc(-n2c(=O)n(C3CC3)c(=O)c3c(Nc4ccc(I)cc4F)n(C)c(=O)c(C)c32)c1 [Trametinib] (0.25 nM) ... 122
C=CCc1cccc(/C=N/NC(=O)CN2CCN(Cc3ccccc3)CC2)c1O [PAC-1] (10 nM) ... 108
O=C(O)CCCCC(CCSCc1ccccc1)SCc1ccccc1 (configuration not stated) [CPI-613] (10 nM) ... 95.5
COc1cc2nccc(Oc3ccc(NC(=O)Nc4cc(C)on4)c(Cl)c3)c2cc1OC [Tivozanib] (10 nM) ... 85.4

Query: What value of normalised response has been reported for the following compound? CCCS(=O)(=O)Nc1ccc(F)c(C(=O)c2c[nH]c3ncc(-c4ccc(Cl)cc4)cc23)c1F [Vemurafenib] (1000 nM)
Response: 88.6

Query: What value of normalised response has been recorded for this entry: CC1=C(/C=C/C(C)=C/C=C/C(C)=C/C(=O)O)C(C)(C)CCC1 [Tretinoin] (10 nM)
Response: 81

###

- Test system: CAL-120
- procedure text: normalised response (% of control), CellTox Green; higher = less cell death (100 = DMSO, 0 = benzethonium chloride kill control)
- protocol conditions: incubation time: 72 h
Measured normalised response by item

COc1cc2c(NC3CCN(C(C)C)CC3)nc(C3CCCCC3)nc2cc1OCCCN1CCCC1 [UNC0638] (1000 nM) ... 100%
Nc1nc(F)nc2c1ncn2[C@@H]1O[C@H](CO)[C@@H](O)[C@@H]1O [Fludarabine] (1000 nM) ... 101%
COc1cc2c(Oc3ccc4[nH]c(C)cc4c3F)ncnc2cc1OCCCN1CCCC1 [Cediranib] (1000 nM) ... 88.1%
O=C(O)C(=O)O.[NH-][C@@H]1CCCC[C@H]1[NH-].[Pt+2] [Oxaliplatin] (10000 nM) ... 99.1%
CC(=O)Nc1cccc(-n2c(=O)n(C3CC3)c(=O)c3c(Nc4ccc(I)cc4F)n(C)c(=O)c(C)c32)c1 [Trametinib] (250 nM) ... 77.3%

Let us examine a further case.
Query: Param readout= normalised response; system= CAL-120; entry= N#Cc1ccc(C(c2ccc(C#N)cc2)n2cncn2)cc1 [Letrozole] (10000 nM) ; returns value.
Response: 101%

###

- Test system: DU-4475
- procedure text: normalised response (% of control), CellTiter-Glo; higher = more viable cells (100 = DMSO, 0 = benzethonium chloride kill control)
- protocol conditions: incubation time: 72 h
value kind: normalised response (%)
Reply with just the number (in %).

N#Cc1ccc(C(c2ccc(C#N)cc2)n2cncn2)cc1 [Letrozole] (100 nM) ... 102
Nc1ccccc1NC(=O)c1ccc(CNC(=O)OCc2cccnc2)cc1 [Entinostat] (100 nM) ... 105
Cc1ccc(-c2cc(C(F)(F)F)nn2-c2ccc(S(N)(=O)=O)cc2)cc1 [Celecoxib] (100 nM) ... 103
CCCS(=O)(=O)Nc1ccc(F)c(C(=O)c2c[nH]c3ncc(-c4ccc(Cl)cc4)cc23)c1F [Vemurafenib] (100 nM) ... 86.5
Oc1ncc(N(CCCl)CCCl)c(O)n1 [Uracil mustard] (100 nM) ... 99.1

Query: Return normalised response measured with DU-4475 given this compound: CCN(CC)CCCC(C)Nc1c2ccc(Cl)cc2nc2ccc(OC)cc12 (stereo not drawn) [Mepacrine] (500 nM)
Response: 99.8

Query: Checklist item: normalised response tested on DU-4475, entry CC[C@@H]1C(=O)N(C)c2cnc(Nc3ccc(C(=O)NC4CCN(C)CC4)cc3OC)nc2N1C1CCCC1 [BI 2536] (10 nM) , value?
Response: 85.2

Query: Give recorded normalised response with DU-4475 for the following compound: COc1cc2c(NC3CCN(C(C)C)CC3)nc(C3CCCCC3)nc2cc1OCCCN1CCCC1 [UNC0638] (100 nM)
Response: 86.5

###

A collection of compounds and their measured drug sensitivity score
- System: MDA-MB-436
- procedure text: drug sensitivity score (DSS), CellTiter-Glo (DSS (AUC-based score)); higher = stronger drug effect (viability inhibition or cytotoxicity); extreme values may be limits of the assay
- protocol conditions: incubation time: 72 h
Please state the value as a number alone, without comment.

Query: What drug sensitivity score appears in the records for this compound with MDA-MB-436? CC[C@@H]1C(=O)N(C)c2cnc(Nc3ccc(C(=O)NC4CCN(C)CC4)cc3OC)nc2N1C1CCCC1
Response: 14

Query: Quick check: drug sensitivity score on MDA-MB-436, item C=CC(=O)N1CCC[C@@H](n2nc(-c3ccc(Oc4ccccc4)cc3)c3c(N)ncnc32)C1 ?
Response: 0

Query: Identify the measured drug sensitivity score of Nc1ccccc1NC(=O)c1ccc(CNC(=O)OCc2cccnc2)cc1 for MDA-MB-436.
Response: 2.51

Query: drug sensitivity score of COc1cc2c(NC3CCN(C(C)C)CC3)nc(C3CCCCC3)nc2cc1OCCCN1CCCC1 on MDA-MB-436?
Response: 6.5

Query: Reported drug sensitivity score for MDA-MB-436, given COc1cc2nccc(Oc3ccc(NC(=O)Nc4cc(C)on4)c(Cl)c3)c2cc1OC ?
Response: 0

Query: Item: CCCCC(=O)OCC(=O)[C@]1(O)Cc2c(O)c3c(c(O)c2[C@@H](O[C@H]2C[C@H](NC(=O)C(F)(F)F)[C@H](O)[C@H](C)O2)C1)C(=O)c1c(OC)cccc1C3=O Test system: MDA-MB-436 Read-out: drug sensitivity score Value: ?
Response: 9.03

Query: Query the reported drug sensitivity score for MDA-MB-436; item: Cc1ccc(-c2cc(C(F)(F)F)nn2-c2ccc(S(N)(=O)=O)cc2)cc1
Response: 0
